A collection of binders and their measured pKd
Biological target: T1, LIN7B, Q9HAP6
T1 sequence (Q9HAP6 88-185, limits assumed, looked up): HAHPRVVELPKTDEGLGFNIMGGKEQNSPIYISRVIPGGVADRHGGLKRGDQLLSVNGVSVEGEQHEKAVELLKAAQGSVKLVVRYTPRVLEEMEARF
Assay: holdup assay
Set-up: key: below the threshold = too weak to quantify, mostly under pKd 3.1 to 4
Conditions: plain residues with an end cap or a label only (N-terminal biotin on a linker: ttds)
Measured property: pKd

1. NPDALPETLV [ARHGAP6, O43182] | 3.77
2. SSIDLWETAL [SLC15A5, A6NIM6] | 4.92
3. KLVIKTETTV [RASSF6, Q6ZTQ3] | 3.81
4. GARVSKETPL [MAPK12, P53778] | 3.86
5. SGGKRKETLV [NET1, Q7Z628] | 3.81
6. PSRDRKETSI [RALBP1, Q15311] | 3.49
7. SRSRRRETAL [HPV33-E6, P06427] | 3.72
